Reported pH in clear solution values for a set of molecules
- EXPERIMENTAL_PROTOCOL: Dynamic solubility test in water, SGF, FeSSIF, FaSSIF
- Format: physicochemical
- EXPERIMENTAL_SETUP: FaSSIF, Time 24; dihydrochloride
Counter-ions that a name gives are not always drawn.

Worked cases, answers included:
Let me know recorded pH in clear solution for CC1CCN(C(=O)c2ccc([C@H](c3cccc(O)c3)N3C[C@@H](C)N(Cc4cccc(F)c4)C[C@@H]3C)cc2)CC1 [Polymorph form O, dihydrochloride] , thanks.
2.2

Hello, please tell me recorded pH in clear solution for this one: CC1CCN(C(=O)c2ccc([C@H](c3cccc(O)c3)N3C[C@@H](C)N(Cc4cccc(F)c4)C[C@@H]3C)cc2)CC1 [Polymorph form B, dihydrochloride]
2.3

Give reported pH in clear solution value for CC1CCN(C(=O)c2ccc([C@H](c3cccc(O)c3)N3C[C@@H](C)N(Cc4cccc(F)c4)C[C@@H]3C)cc2)CC1 [Polymorph form F, dihydrochloride]
4.5

Please give measured pH in clear solution of the following entry: CC1CCN(C(=O)c2ccc([C@H](c3cccc(O)c3)N3C[C@@H](C)N(Cc4cccc(F)c4)C[C@@H]3C)cc2)CC1 [Polymorph form P, dihydrochloride]
2.6

More entries:
Consider the molecule CC1CCN(C(=O)c2ccc([C@H](c3cccc(O)c3)N3C[C@@H](C)N(Cc4cccc(F)c4)C[C@@H]3C)cc2)CC1 [Polymorph form J, dihydrochloride] and give its recorded pH in clear solution.
2.6

---

- EXPERIMENTAL_PROTOCOL: Dynamic solubility test in water, SGF, FeSSIF, FaSSIF
- Type: physicochemical
- EXPERIMENTAL_SETUP: pH 1.8, simulated gastric fluid, thermodynamic from solid, Solubility
Structures can show the parent of a compound that is named as a salt.
ENDPOINT_LABEL: Solubility (µg/mL)
Numeric only. Scale: µg/mL

Retrieve Solubility measured for CC1CCN(C(=O)c2ccc([C@H](c3cccc(O)c3)N3C[C@@H](C)N(Cc4cccc(F)c4)C[C@@H]3C)cc2)CC1 [Polymorph form P, dihydrochloride] and print it.
3400

---

Overview of reported pH in clear solution across a group of compounds:
- EXPERIMENTAL_PROTOCOL: Dynamic solubility test in water, SGF, FeSSIF, FaSSIF
- Assay type: physicochemical
- EXPERIMENTAL_SETUP: FaSSIF, Time 4; dihydrochloride
Counter-ions that a name gives are not always drawn.
Answer with a number only.

Below, 2 compounds whose answers are already recorded.
Identify measured pH in clear solution associated with CC1CCN(C(=O)c2ccc([C@H](c3cccc(O)c3)N3C[C@@H](C)N(Cc4cccc(F)c4)C[C@@H]3C)cc2)CC1 [Polymorph form F, dihydrochloride]
4.2

For the compound CC1CCN(C(=O)c2ccc([C@H](c3cccc(O)c3)N3C[C@@H](C)N(Cc4cccc(F)c4)C[C@@H]3C)cc2)CC1 [Polymorph form O, dihydrochloride] , give its measured pH in clear solution value.
2.4

Others:
Given CC1CCN(C(=O)c2ccc([C@H](c3cccc(O)c3)N3C[C@@H](C)N(Cc4cccc(F)c4)C[C@@H]3C)cc2)CC1 [Polymorph form P, dihydrochloride] , respond with its pH in clear solution.
2.2

State its pH in clear solution: CC1CCN(C(=O)c2ccc([C@H](c3cccc(O)c3)N3C[C@@H](C)N(Cc4cccc(F)c4)C[C@@H]3C)cc2)CC1 [Polymorph form B, dihydrochloride]
2.5

Identify the reported pH in clear solution for the following entry. CC1CCN(C(=O)c2ccc([C@H](c3cccc(O)c3)N3C[C@@H](C)N(Cc4cccc(F)c4)C[C@@H]3C)cc2)CC1 [Polymorph form J, dihydrochloride]
2.8
